- experimental system: Adenosine receptor A3 (Homo sapiens) (UniProt P0DMS8)
- Sequence (P0DMS8 whole entry): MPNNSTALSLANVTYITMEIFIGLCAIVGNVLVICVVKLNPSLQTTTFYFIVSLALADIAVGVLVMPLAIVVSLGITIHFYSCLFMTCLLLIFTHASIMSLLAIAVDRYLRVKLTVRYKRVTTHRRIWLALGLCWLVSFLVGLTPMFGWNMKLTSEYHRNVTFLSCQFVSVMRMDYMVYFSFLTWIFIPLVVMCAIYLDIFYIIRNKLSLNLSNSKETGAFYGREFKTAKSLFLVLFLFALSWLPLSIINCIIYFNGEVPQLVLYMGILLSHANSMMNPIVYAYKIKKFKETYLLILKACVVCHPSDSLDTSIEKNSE
- assay name: Inhibition of human adenosine A3 receptor at 10 uM
measure name: inhibition (%)

- compound: "CC(=O)CCc1nc(N)c2nc(-n3nccn3)n(C)c2n1"
  inhibition / %: 56
- compound: "CC(O)CCc1nc(N)c2nc(-n3nccn3)n(C)c2n1 (racemic)"
  inhibition / %: 61
- compound: "CCCC(O)c1nc(N)c2nc(-n3nccn3)n(C)c2n1 (racemic)"
  inhibition / %: 55
- compound: "Cn1c(-n2nccn2)nc2c(N)nc(CCCCO)nc21"
  inhibition / %: 47

* * *

- experimental system: UniProtKB P29274
- assay name: Antagonist activity at human adenosine A2A receptor expressed in HEK293 cells assessed as inhibition of NECA-induced cAMP accumulation incubated for 10 mins prior to NECA addition
measure name: IC50 (nM)
Give just the numeric value; nM need not be written.

If you can, please state the reported IC50 value of CCCCc1nc(N)c2nc(-n3nccn3)n(C)c2n1 .
430

* * *

- experimental system: Adenosine receptor A1 (Homo sapiens, UniProt P30542)
- Sequence (P30542 whole entry): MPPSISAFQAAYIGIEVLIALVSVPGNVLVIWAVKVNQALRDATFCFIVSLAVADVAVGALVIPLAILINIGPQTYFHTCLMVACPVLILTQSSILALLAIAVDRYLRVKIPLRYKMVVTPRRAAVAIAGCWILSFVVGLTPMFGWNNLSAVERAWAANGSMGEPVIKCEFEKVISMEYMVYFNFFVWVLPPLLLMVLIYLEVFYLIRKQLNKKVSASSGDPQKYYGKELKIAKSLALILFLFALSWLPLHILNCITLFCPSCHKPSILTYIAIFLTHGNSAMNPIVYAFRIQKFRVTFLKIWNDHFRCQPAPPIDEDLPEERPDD
- assay name: Displacement of [3H]DPCPX from human recombinant adenosine A1 receptor expressed in CHO-K1 cells after 60 mins
pKi: −log10 of the molar value.
measure name: pKi

- molecule: "CC(O)CCc1nc(N)c2nc(-n3nccn3)n(C)c2n1 (racemic)"
  experimental system: "Adenosine receptor A1 (Homo sapiens, UniProt P30542)"
  reported: 7.47
- molecule: "C[C@@H](O)CCc1nc(N)c2nc(-n3nccn3)n(C)c2n1"
  experimental system: "Adenosine receptor A1 (Homo sapiens, UniProt P30542)"
  reported: 7.47
- molecule: "Cn1c(-n2nccn2)nc2c(N)nc(CCCCO)nc21"
  experimental system: "Adenosine receptor A1 (Homo sapiens, UniProt P30542)"
  reported: 6.82

[1] CCCCc1nc(N)c2nc(-n3nccn3)n(C)c2n1 [ST1535]
[2] C[C@H](O)CCc1nc(N)c2nc(-n3nccn3)n(C)c2n1
[3] CCCC(O)c1nc(N)c2nc(-n3nccn3)n(C)c2n1 (racemic)
Your job: order these 3 records by pKi, ascending. Give me the labels in the order the question wants.
3, 1, 2

* * *

In this section, each of the compounds is paired with its reported pKi.
- experimental system: Adenosine receptor A2a (Homo sapiens)
- Sequence (P29274 whole entry): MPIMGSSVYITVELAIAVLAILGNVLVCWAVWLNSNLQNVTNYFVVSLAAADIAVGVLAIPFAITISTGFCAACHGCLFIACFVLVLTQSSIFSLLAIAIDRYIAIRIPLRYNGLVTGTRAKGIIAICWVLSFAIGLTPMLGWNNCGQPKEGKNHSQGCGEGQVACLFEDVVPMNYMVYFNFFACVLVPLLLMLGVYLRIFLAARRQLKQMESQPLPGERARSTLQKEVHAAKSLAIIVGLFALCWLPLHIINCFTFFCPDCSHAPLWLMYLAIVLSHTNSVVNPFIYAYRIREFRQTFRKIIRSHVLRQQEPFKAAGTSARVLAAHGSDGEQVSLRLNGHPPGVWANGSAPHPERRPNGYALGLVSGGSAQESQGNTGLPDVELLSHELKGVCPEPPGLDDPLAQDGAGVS
- assay name: Displacement of [3H]ZM241385 from human recombinant adenosine A2A receptor expressed in HEK293 cells after 1 hr by competitive binding assay
By convention, pKi is the negative base-10 log of a molar concentration.

- compound: "CCC(O)Cc1nc(N)c2nc(-n3nccn3)n(C)c2n1 (stereo not drawn)"
  pKi: 7.19
- compound: "CC(O)CCc1nc(N)c2nc(-n3nccn3)n(C)c2n1 (racemic)"
  pKi: 8.08

// returns reported pKi for input C[C@@H](O)CCc1nc(N)c2nc(-n3nccn3)n(C)c2n1
8.12
